The following compounds are shown together with reported IC50 values.
- measuredTarget: recombinant CETP (rCETP) (Homo sapiens)
- Sequence (P11597 18-493): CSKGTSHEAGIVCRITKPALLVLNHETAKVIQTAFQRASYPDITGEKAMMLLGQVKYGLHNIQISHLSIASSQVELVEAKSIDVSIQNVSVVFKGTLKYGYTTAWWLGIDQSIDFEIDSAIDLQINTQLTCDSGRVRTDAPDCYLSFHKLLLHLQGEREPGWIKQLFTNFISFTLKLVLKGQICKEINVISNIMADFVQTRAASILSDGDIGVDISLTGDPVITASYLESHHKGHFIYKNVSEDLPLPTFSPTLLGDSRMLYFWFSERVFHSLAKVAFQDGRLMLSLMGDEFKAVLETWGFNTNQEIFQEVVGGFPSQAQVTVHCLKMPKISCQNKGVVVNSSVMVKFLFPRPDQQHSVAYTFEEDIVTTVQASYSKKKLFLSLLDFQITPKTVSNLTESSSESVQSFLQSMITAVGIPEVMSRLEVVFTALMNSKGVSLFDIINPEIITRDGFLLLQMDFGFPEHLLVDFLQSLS
- runDescription: RTA assay using recombinant CETP (2% RTA)
- Assay type: biochemical
- conditionsUsed: RTA assay in 2% human serum; read-out: IC50
Enter your answer as a number in nM; do not include the unit.

compound	readoutLabel	numericReadout
COC(=O)c1ccc(-c2ccc(OC)c(-c3ccc(N4CCC4)nc3CN3C(=O)O[C@H](c4cc(C(F)(F)F)cc(C(F)(F)F)c4)[C@@H]3C)c2)cn1 [Example 58]	IC50	29
COc1ccc(-c2nn(C)c(C(=O)O)c2C)cc1-c1ccc(N2CCC2)nc1CN1C(=O)O[C@H](c2cc(C(F)(F)F)cc(C(F)(F)F)c2)[C@@H]1C [Example 94]	IC50	12
COC(=O)[C@@H]1CC[C@@H](c2ccc(OC)c(-c3ccc(N4CCC4)nc3CN3C(=O)O[C@H](c4cc(C(F)(F)F)cc(C(F)(F)F)c4)[C@@H]3C)c2)C1 (racemic) [Example 214]	IC50	8
COC(=O)c1ccc(-c2cc(-c3ccc(N4CCC4)nc3CN3C(=O)O[C@H](c4cc(F)cc(F)c4)[C@@H]3C)c(OC)cc2F)c(C)c1 [Example 21]	IC50	22
COc1cc(F)c(-c2ccc(C(=O)O)cc2C)cc1-c1ccc(N2CC(F)(F)C2)nc1CN1C(=O)O[C@H](c2cccc(OC(F)(F)F)c2)[C@@H]1C [Example 296]	IC50	8

Next up:
IC50 measured on COc1ccc(Cc2ncc[nH]2)cc1-c1ccc(N2CCC2)nc1CN1C(=O)O[C@H](c2cc(C(F)(F)F)cc(C(F)(F)F)c2)[C@@H]1C [Example 267] = 67
